Can you tell me MIC for the items I'm about to list?
Tested on: Streptococcus faecium IFO 3826
Assay: Antibacterial activity, agar-dilution MIC, organism No. 27
Type: cell-based
Settings: Enterococcus faecium, IFO3826, read-out: Minimum Inhibitory Concentration
Give the value, in units of µg/mL, as a plain number.

According to the records, this compound [C-]#[N+]C12CC3(/C=C/C(=O)Nc4nc[nH]n4)OC3C1O2 (stereo not shown) [compound 78] displays MIC of 200

According to the records, this compound [C-]#[N+]C12CC3(/C=C/C(=O)Nc4ccc(O)cc4)OC3C1O2 (stereo not shown) [compound 56] displays MIC of 50

According to the records, this compound [C-]#[N+]C12CC3(/C=C/C(=O)Nc4ccc(OC)cc4)OC3C1O2 (stereo not shown) [compound 53] displays MIC of 6.25

According to the records, this compound [C-]#[N+]C12CC3(/C=C/C(=O)NCCO)OC3C1O2 (stereo not shown) [compound 68] displays MIC of 200

---

Tested on: Proteus vulgaris HX-19
Test: Antibacterial activity, agar-dilution MIC, organism No. 21
Assay type: cell-based
Settings: Proteus vulgaris, HX19; Organism No. 21, bouillon-agar; read-out: Minimum Inhibitory Concentration
Checkbox rule: MIC lower than 2 µg/mL = y; MIC not lower than 2 µg/mL = n.

Here's an entry: [C-]#[N+]C12CC3(/C=C/C(=O)N[C@@H](CCC(=O)OC)C(=O)OC)OC3C1O2 (some centres unmarked) . Is its MIC below 2 µg/mL?
n

Here's an entry: [C-]#[N+]C12CC3(/C=C/C(=O)Nc4ccc5c(c4)CCC5)OC3C1O2 (centres unmarked) . Is its MIC below 2 µg/mL?
y

Here's an entry: [C-]#[N+]C12CC3(/C=C/C(=O)OCc4cccc([N+](=O)[O-])c4)OC3C1O2 (centres unmarked) . Is its MIC below 2 µg/mL?
n

Here's an entry: [C-]#[N+]C12CC3(/C=C/C(=O)NC4C(=O)N5C4SC(C)(C)C5C(=O)OCC(=O)c4ccc(Br)cc4)OC3C1O2 (centres unmarked) . Is its MIC below 2 µg/mL?
y

Here's an entry: [C-]#[N+]C12CC3(/C=C/C(=O)OCC)OC3C1O2 (stereo not drawn) [Compound No. 2, ethyl β-substituted acrylate] . Is its MIC below 2 µg/mL?
y

Here's an entry: [C-]#[N+]C12CC3(/C=C/C(=O)OCc4ccccc4)OC3C1O2 (stereo not drawn) [Compound No. 10, benzyl β-substituted acrylate] . Is its MIC below 2 µg/mL?
y

Here's an entry: [C-]#[N+]C12CC3(/C=C/C(=O)Nc4nccs4)OC3C1O2 (centres unmarked) . Is its MIC below 2 µg/mL?
y

Here's an entry: [C-]#[N+]C12CC3(/C=C/C(=O)N[C@@H](Cc4ccccc4)C(=O)OCc4ccccc4)OC3C1O2 (some centres unmarked) . Is its MIC below 2 µg/mL?
n

Here's an entry: [C-]#[N+]C12CC3(/C=C/C(=O)Nc4ccccc4N)OC3C1O2 (centres unmarked) . Is its MIC below 2 µg/mL?
y

Here's an entry: [C-]#[N+]C12CC3(/C=C/C(=O)Nc4ccccc4Cl)OC3C1O2 (centres unmarked) . Is its MIC below 2 µg/mL?
y

Here's an entry: [C-]#[N+]C12CC3(/C=C/C(=O)O)OC3C1O2 (stereo not drawn) [α substituted acrylic acid, reference compound] . Is its MIC below 2 µg/mL?
n

Here's an entry: [C-]#[N+]C12CC3(/C=C/C(=O)Nc4ccc(C(C)=O)cc4)OC3C1O2 (centres unmarked) . Is its MIC below 2 µg/mL?
y

Here's an entry: [C-]#[N+]C12CC3(/C=C/C(=O)Nc4ccccc4O)OC3C1O2 (centres unmarked) . Is its MIC below 2 µg/mL?
y

Here's an entry: [C-]#[N+]C12CC3(/C=C/C(=O)Nc4ccc(F)cc4)OC3C1O2 (centres unmarked) . Is its MIC below 2 µg/mL?
y

Here's an entry: [C-]#[N+]C12CC3(/C=C/C(=O)N4CCC[C@H]4C(=O)OCc4ccccc4)OC3C1O2 (some centres unmarked) . Is its MIC below 2 µg/mL?
n

Here's an entry: [C-]#[N+]C12CC3(/C=C/C(=O)NOCc4ccccc4)OC3C1O2 (centres unmarked) . Is its MIC below 2 µg/mL?
y

Here's an entry: [C-]#[N+]C12CC3(/C=C/C(N)=O)OC3C1O2 (centres unmarked) . Is its MIC below 2 µg/mL?
y

Here's an entry: [C-]#[N+]C12CC3(/C=C/C(=O)Nc4ccc(C(=O)c5ccccc5)cc4)OC3C1O2 (centres unmarked) . Is its MIC below 2 µg/mL?
y

Here's an entry: [C-]#[N+]C12CC3(/C=C/C(=O)Nc4cccc(C(=O)O)c4)OC3C1O2 (centres unmarked) . Is its MIC below 2 µg/mL?
n

Here's an entry: [C-]#[N+]C12CC3(/C=C/C(=O)Nc4ccc(C(F)(F)F)cc4)OC3C1O2 (centres unmarked) . Is its MIC below 2 µg/mL?
y

Here's an entry: [C-]#[N+]C12CC3(/C=C/C(=O)N[C@@H](CC(=O)OCc4ccccc4)C(=O)OCc4ccccc4)OC3C1O2 (some centres unmarked) . Is its MIC below 2 µg/mL?
n

Here's an entry: [C-]#[N+]C12CC3(/C=C/C(=O)Nc4ccccc4)OC3C1O2 (centres unmarked) . Is its MIC below 2 µg/mL?
y

Here's an entry: [C-]#[N+]C12CC3(/C=C/C(=O)N[C@@H](CCC(=O)OCc4ccccc4)C(=O)OCc4ccccc4)OC3C1O2 (some centres unmarked) . Is its MIC below 2 µg/mL?
n

Here's an entry: [C-]#[N+]C12CC3(/C=C/C(=O)OC)OC3C1O2 (centres unmarked) . Is its MIC below 2 µg/mL?
y

Here's an entry: [C-]#[N+]C12CC3(/C=C/C(=O)NC4CCCCC4)OC3C1O2 (centres unmarked) . Is its MIC below 2 µg/mL?
y

Here's an entry: [C-]#[N+]C12CC3(/C=C/C(=O)Nc4nc5ccccc5s4)OC3C1O2 (centres unmarked) . Is its MIC below 2 µg/mL?
y

Here's an entry: [C-]#[N+]C12CC3(/C=C/C(=O)OCC(=O)c4cccc(OC)c4)OC3C1O2 (centres unmarked) . Is its MIC below 2 µg/mL?
y

Here's an entry: [C-]#[N+]C12CC3(/C=C/C(=O)N[C@@H](C(=O)OCc4ccccc4)C(C)C)OC3C1O2 (some centres unmarked) . Is its MIC below 2 µg/mL?
n

Here's an entry: [C-]#[N+]C12CC3(/C=C/C(=O)NC4C(=O)N5C(C(=O)OCC(=O)c6ccc(Br)cc6)=C(C)CSC45)OC3C1O2 (centres unmarked) . Is its MIC below 2 µg/mL?
n

Here's an entry: [C-]#[N+]C12CC3(/C=C/C(=O)Nc4ccc(Br)cc4)OC3C1O2 (centres unmarked) . Is its MIC below 2 µg/mL?
y

Here's an entry: [C-]#[N+]C12CC3(/C=C/C(=O)N[C@@H](CC(=O)OC)C(=O)OC)OC3C1O2 (some centres unmarked) . Is its MIC below 2 µg/mL?
n

Here's an entry: [C-]#[N+]C12CC3(/C=C/C(=O)Nc4cccc(C(F)(F)F)c4)OC3C1O2 (centres unmarked) . Is its MIC below 2 µg/mL?
y

---

Tested on: Pseudomonas aeruginosa PAO 1
Test: Antibacterial activity, agar-dilution MIC, organism No. 17
Type: cell-based
Conditions: Pseudomonas aeruginosa, PAO1; Organism No. 17, bouillon-agar; read-out: Minimum Inhibitory Concentration
reported property: MIC

Test item [C-]#[N+]C12CC3(/C=C/C(=O)Nc4ccc(OC(C)C)cc4)OC3C1O2 (stereo not drawn) ; Pseudomonas aeruginosa PAO 1; reported MIC was > 200 µg/mL

Test item [C-]#[N+]C12CC3(/C=C/C(=O)OC)OC3C1O2 (stereo not drawn) ; Pseudomonas aeruginosa PAO 1; reported MIC was > 200 µg/mL

Test item [C-]#[N+]C12CC3(/C=C/C(=O)Nc4nccs4)OC3C1O2 (stereo not drawn) ; Pseudomonas aeruginosa PAO 1; reported MIC was > 200 µg/mL

Test item [C-]#[N+]C12CC3(/C=C/C(=O)Nc4ccccc4OC)OC3C1O2 (stereo not drawn) ; Pseudomonas aeruginosa PAO 1; reported MIC was > 200 µg/mL

Test item [C-]#[N+]C12CC3(/C=C/C(=O)Nc4ccc(Br)cc4)OC3C1O2 (stereo not drawn) ; Pseudomonas aeruginosa PAO 1; reported MIC was > 200 µg/mL

Test item [C-]#[N+]C12CC3(/C=C/C(=O)N[C@@H](CC(=O)OC)C(=O)OC)OC3C1O2 (stereo partly drawn) ; Pseudomonas aeruginosa PAO 1; reported MIC was > 200 µg/mL

Test item [C-]#[N+]C12CC3(/C=C/C(=O)NC4C(=O)N5C4SC(C)(C)C5C(=O)OCC(=O)c4ccc(Br)cc4)OC3C1O2 (stereo not drawn) ; Pseudomonas aeruginosa PAO 1; reported MIC was > 200 µg/mL

Test item [C-]#[N+]C12CC3(/C=C/C(=O)OCc4ccccc4)OC3C1O2 (stereo not drawn) [Compound No. 10, benzyl β-substituted acrylate] ; Pseudomonas aeruginosa PAO 1; reported MIC was > 100 µg/mL

Test item [C-]#[N+]C12CC3(/C=C/C(=O)OCc4cccc(OC)c4)OC3C1O2 (stereo not drawn) ; Pseudomonas aeruginosa PAO 1; reported MIC was > 100 µg/mL

Test item [C-]#[N+]C12CC3(/C=C/C(=O)Nc4ccccc4Cl)OC3C1O2 (stereo not drawn) ; Pseudomonas aeruginosa PAO 1; reported MIC was > 200 µg/mL

Test item [C-]#[N+]C12CC3(/C=C/C(=O)N[C@@H](Cc4ccccc4)C(=O)OCc4ccccc4)OC3C1O2 (stereo partly drawn) ; Pseudomonas aeruginosa PAO 1; reported MIC was > 200 µg/mL

Test item [C-]#[N+]C12CC3(/C=C/C(=O)OCC(=O)c4ccc([N+](=O)[O-])cc4)OC3C1O2 (stereo not drawn) ; Pseudomonas aeruginosa PAO 1; reported MIC was > 100 µg/mL

Test item [C-]#[N+]C12CC3(/C=C/C(=O)Nc4cccc(C)c4)OC3C1O2 (stereo not drawn) ; Pseudomonas aeruginosa PAO 1; reported MIC was > 200 µg/mL

Test item [C-]#[N+]C12CC3(/C=C/C(=O)Nc4nnc(C)s4)OC3C1O2 (stereo not drawn) ; Pseudomonas aeruginosa PAO 1; reported MIC was > 200 µg/mL

Test item [C-]#[N+]C12CC3(/C=C/C(=O)Nc4ccc(OCCC)cc4)OC3C1O2 (stereo not drawn) ; Pseudomonas aeruginosa PAO 1; reported MIC was > 200 µg/mL

Test item [C-]#[N+]C12CC3(/C=C/C(=O)N4CCOCC4)OC3C1O2 (stereo not drawn) ; Pseudomonas aeruginosa PAO 1; reported MIC was > 200 µg/mL

Test item [C-]#[N+]C12CC3(/C=C/C(=O)Nc4cccc(C(=O)OC)c4)OC3C1O2 (stereo not drawn) ; Pseudomonas aeruginosa PAO 1; reported MIC was > 200 µg/mL

Test item [C-]#[N+]C12CC3(/C=C/C(=O)NCc4ccccc4)OC3C1O2 (stereo not drawn) ; Pseudomonas aeruginosa PAO 1; reported MIC was > 100 µg/mL

Test item [C-]#[N+]C12CC3(/C=C/C(=O)O)OC3C1O2 (stereo not drawn) [α substituted acrylic acid, reference compound] ; Pseudomonas aeruginosa PAO 1; reported MIC was 200 µg/mL

Test item [C-]#[N+]C12CC3(/C=C/C(=O)N4CCN(C)CC4)OC3C1O2 (stereo not drawn) ; Pseudomonas aeruginosa PAO 1; reported MIC was > 200 µg/mL

Test item [C-]#[N+]C12CC3(/C=C/C(=O)Nc4cccc(O)c4)OC3C1O2 (stereo not drawn) ; Pseudomonas aeruginosa PAO 1; reported MIC was > 200 µg/mL

Test item [C-]#[N+]C12CC3(/C=C/C(=O)Nc4cccc(N)c4)OC3C1O2 (stereo not drawn) ; Pseudomonas aeruginosa PAO 1; reported MIC was > 200 µg/mL

Test item [C-]#[N+]C12CC3(/C=C/C(=O)Nc4cccc(C(=O)O)c4)OC3C1O2 (stereo not drawn) ; Pseudomonas aeruginosa PAO 1; reported MIC was > 200 µg/mL

Test item [C-]#[N+]C12CC3(/C=C/C(=O)Nc4ccc(N)cc4)OC3C1O2 (stereo not drawn) ; Pseudomonas aeruginosa PAO 1; reported MIC was > 200 µg/mL

Test item [C-]#[N+]C12CC3(/C=C/C(=O)OCC(=O)c4cccc(OC)c4)OC3C1O2 (stereo not drawn) ; Pseudomonas aeruginosa PAO 1; reported MIC was > 100 µg/mL

Test item [C-]#[N+]C12CC3(/C=C/C(=O)NOC)OC3C1O2 (stereo not drawn) ; Pseudomonas aeruginosa PAO 1; reported MIC was > 200 µg/mL

Test item [C-]#[N+]C12CC3(/C=C/C(=O)OCC(=O)c4ccc(Cl)cc4)OC3C1O2 (stereo not drawn) ; Pseudomonas aeruginosa PAO 1; reported MIC was > 100 µg/mL

Test item [C-]#[N+]C12CC3(/C=C/C(=O)OCC(=O)c4ccc(Br)cc4)OC3C1O2 (stereo not drawn) [Compound No. 4, p-bromophenacylβ-substituted acrylate] ; Pseudomonas aeruginosa PAO 1; reported MIC was > 100 µg/mL

Test item [C-]#[N+]C12CC3(/C=C/C(=O)OCC(=O)c4ccc(C)cc4)OC3C1O2 (stereo not drawn) ; Pseudomonas aeruginosa PAO 1; reported MIC was > 100 µg/mL

Test item [C-]#[N+]C12CC3(/C=C/C(=O)OCc4cccc([N+](=O)[O-])c4)OC3C1O2 (stereo not drawn) ; Pseudomonas aeruginosa PAO 1; reported MIC was > 200 µg/mL

Test item [C-]#[N+]C12CC3(/C=C/C(=O)Nc4ccc(C(=O)c5ccccc5)cc4)OC3C1O2 (stereo not drawn) ; Pseudomonas aeruginosa PAO 1; reported MIC was > 200 µg/mL

Test item [C-]#[N+]C12CC3(/C=C/C(=O)NC4=NCCS4)OC3C1O2 (stereo not drawn) ; Pseudomonas aeruginosa PAO 1; reported MIC was > 200 µg/mL

Test item [C-]#[N+]C12CC3(/C=C/C(=O)NOCc4ccccc4)OC3C1O2 (stereo not drawn) ; Pseudomonas aeruginosa PAO 1; reported MIC was > 200 µg/mL

// data source = patent US4684664A
